Tested on: OVCAR-3 ovarian
Assay: NCI tumour cell line growth inhibition, 48 h; in the data active = GI50 below about 0.43 µM; inactive = the rest
Residues, ends and D or L forms follow the SMILES beside them. *: point of attachment. Cbz = O=C(OCc1ccccc1)*
Entry note: the call must match one of 1.0 = active, 0.0 = inactive

{"columns": ["Molecule", "Group"],
 "data": [
  ["CC(C)C[C@@H](C=O)NC(=O)[C@H](CC(C)C)NC(=O)[C@H](CC(C)C)NC(=O)OCc1ccccc1 (Cbz-Leu-Leu-Leu-aldehyde)", 1.0],
  ["C[C@H]1CCC/C=C/[C@@H]2C[C@H](O)C[C@H]2[C@H](O)/C=C/C(=O)O1", 1.0],
  ["O=C1CC(N2C(=O)/C(=C/C(Cl)=C\\c3ccc([N+](=O)[O-])cc3)SC2=S)C(=O)N1c1ccc(O)cc1 (centres undefined)", 0.0],
  ["O=[N+]([O-])c1ccc2c(c1)C(c1ccccc1Cl)=Nc1c(n[nH]c1-c1cccnc1)N2", 0.0],
  ["O=C(O)c1cn(C2CC2)c2cc(N3CCN(Cc4c(O)ccc5ccccc45)CC3)c(F)cc2c1=O", 0.0]
]}

[Q] Could you please tell me the result logged for N#CC1=C(N)Oc2c(sc3c(Br)cccc23)C1c1ccc(Cl)cc1 (centres undefined) in this assay?
[A] 1.0

Each recorded value in this set is attributed to PubChem BioAssay (NCI).
